- testDetails: yeast display, Sf9 membrane polyspecificity reagent, FACS + sequencing; frameworks hold sequencing errors
metric: polyreactivity (PSR sort gate)

Some solved cases for reference:
QVQLVESGGGLVQAGGSLRLSCAASGSTFRVNAMGWYRQAPGKERELVAAISYRGGSTYYADSVKGRFTISRDNAKNTVYLQMINLKPEDTAVYYCNADLKRRTYGPDSYYWGQGTQVTVSS : high polyreactivity
QVQLVESGGGLVQAGGSLRLICAASGSTFLVYSMGWYRQEPGKERELVAAISYSGGSTYYADSVKGRFTISRDNSKNTVYLQLNSLKPEDTAVYYCNVEPVDRWYYKYDYWGQGTEVTVSS : low polyreactivity
QVQLVESGGGLVQAGGSLRLSCAASGRIFRTYTMGWYRQAPGKERELVAAISRSGASTYYADSVKGRFTISRDNAKNTVYLQMNSLKPEDTAVYYCAKLILSTALVSRPGVDYWGQGTQVTVSS : high polyreactivity
QVQLVESGGGLVQAGGSLGLSCAASGRTFGRYVMGWYRLAPGTEWELVAAIRSSGGGTYYADSVKGRFTISRDNAKNTVYLQMNSLKPEETAVYYCAKEYSIGIRWEYDYWGQGTQVTVSS : low polyreactivity

As a next step, examine the sequence that follows.
What does the record list as polyreactivity (PSR sort gate) for `QVQLVESGGGLVQAGGSLRLSCAASGSIFGSYAMGWYRQAPGKERDLVAAISGSGGRTYYADSVKGRFTISRDNAKNTVYLQMNSLKPEDTAVYYCAAAYPRVTYKYGYYWGQGTQVTVSS` ?
high polyreactivity
